The measured values listed here are drawn from patent US9085555B2.

IC50 values for the compounds below.
biological target: Factor D (Homo sapiens (Human), UniProt P00746); assay: biochemical; assay type: biochemical; settings: read-out: IC50
Sequence (P00746 26-253): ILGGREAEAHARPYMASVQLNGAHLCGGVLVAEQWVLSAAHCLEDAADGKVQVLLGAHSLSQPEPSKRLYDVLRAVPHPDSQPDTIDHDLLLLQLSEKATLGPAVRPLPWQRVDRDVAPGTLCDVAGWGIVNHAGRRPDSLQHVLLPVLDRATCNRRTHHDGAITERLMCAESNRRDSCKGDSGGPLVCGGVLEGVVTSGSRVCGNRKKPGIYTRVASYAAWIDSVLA

| Compound | IC50, nM |
| --- | --- |
| NC(=O)n1cc(NC(=O)N2C[C@H](F)C[C@H]2C(=O)NC2CCOc3ccc(Cl)cc32)c2ccccc21 (mixture of isomers) [Example 326] | 7150 |
| CCC[C@H](NC(=O)[C@@H]1C[C@H](N)CN1C(=O)Nc1cn(C(N)=O)c2ccccc12)C(=O)OC [Example 93] | 4000 |
| NC(=O)n1cc(NC(=O)N2C3CC3C[C@H]2C(=O)Nc2cccc(OC(F)(F)F)c2)c2ccc(F)cc21 (some centres unmarked) [Example 297] | 350 |
| NC(=O)c1nn(CC(=O)N2C[C@H]3C[C@H]3[C@H]2C(=O)Nc2cccc(Br)n2)c2ccccc12 [Example 746] | 7 |
| NC(=O)c1nn(CC(=O)N2[C@H](C(=O)Nc3cccc(Br)c3F)C[C@@]3(CO)C[C@@H]23)c2ccccc12 [Example 759] | 9 |
| CC(=O)c1nn(CC(=O)N2[C@@H]3C[C@@H]3C[C@H]2C(=O)Nc2cccc(Br)n2)c2ccncc12 [Example 740] | 13 |
| CO[C@H]1[C@@H](C(=O)NCc2cccc(Cl)c2F)N(C(=O)Cn2cc(C(C)=O)c3cccnc32)C[C@@H]1F [Example 520] | 22 |
| COc1ccc2c(c1)c(NC(=O)N1[C@@H]3C[C@@H]3C[C@H]1C(=O)Nc1cc(Br)cc(C(=O)O)c1)cn2C(N)=O [Example 342] | 55 |
| COC(=O)COc1ccc2c(NC(=O)N3[C@@H]4C[C@@H]4C[C@H]3C(=O)Nc3cccc(OC(F)(F)F)c3)cn(C(N)=O)c2c1 [Example 276] | 1310 |
| C[C@@H]1CC[C@@H](C(=O)NCc2cccc(Cl)c2F)N1C(=O)Nc1cn(C(N)=O)c2ccccc12 [Example 350] | 85 |
| Cc1cc2c(C(N)=O)nn(CC(=O)N3[C@@H]4C[C@@H]4C[C@H]3C(=O)Nc3cccc(Br)c3F)c2cn1 [Example 670] | 90 |
| NC(=O)c1nn(CC(=O)N2[C@@H]3C[C@@H]3C[C@H]2C(=O)Nc2cccc(OC(F)(F)F)c2F)c2cnc(C3CC3)cc12 [Example 719] | 13 |
| NC[C@H]1C[C@@H](C(=O)NCc2cccc(Cl)c2F)N(C(=O)Nc2cn(C(N)=O)c3ccccc23)C1 [Example 405] | 295 |
| NC(=O)n1cc(NC(=O)N2CCC[C@H]2CNS(=O)(=O)c2cccc(Cl)c2)c2ccccc21 [Example 112] | 550 |

----------
molecular target: Factor D (Homo sapiens (Human), UniProt P00746); test: biochemical; format: biochemical; conditions: read-out: IC50
Label class 1 when IC50 is strictly below 100 nM; at or above that, label class 0.

| Structure As Smiles | Qualitative Label |
| --- | --- |
| Cc1cc2c(C(N)=O)nn(CC(=O)N3[C@@H]4C[C@@H]4C[C@H]3C(=O)Nc3cccc(Br)n3)c2c(C)n1 | class 1 |
| COC(=O)c1ccc2c(C(C)=O)cn(CC(=O)N3C[C@H](F)C[C@H]3C(=O)NCc3cccc(Cl)c3F)c2c1 | class 1 |
| NC(=O)n1cc(NC(=O)N2CCC[C@H]2C(=O)Nc2cccc(OC(F)(F)F)c2)c2ccc(Cl)cc21 | class 0 |
| CC(=O)c1cn(CC(=O)N2C[C@H](F)C[C@H]2C(=O)N[C@H](CO)c2cccc(Cl)c2F)c2ccccc12 | class 1 |
| CC(=O)NC[C@H]1CC[C@@H](C(=O)Nc2cccc(OC(F)(F)F)c2)N1C(=O)Nc1cn(C(N)=O)c2ccccc12 | class 0 |
| NC(=O)n1cc(NC(=O)N2C[C@H](F)C[C@H]2C(=O)NCc2cc(C(=O)N3CCOCC3)cc(Cl)c2F)c2ccccc21 | class 0 |
| NC(=O)n1cc(NC(=O)N2C[C@@H](CO)C[C@H]2C(=O)NCc2cccc(Cl)c2F)c2ccccc21 | class 0 |

----------
biological target: Factor D (Homo sapiens (Human), UniProt P00746); assay: biochemical; type: biochemical; settings: read-out: IC50
IC50 values for the compounds below.

| Compound | Target Or Test System | IC50 (µM) |
| --- | --- | --- |
| CN1CCN(Cc2cc(Cl)c(F)c(CNC(=O)[C@@H]3C[C@@H](F)CN3C(=O)Nc3cn(C(N)=O)c4ccccc34)c2)CC1 | Factor D (Homo sapiens (Human), UniProt P00746) | 0.604 |
| NC(=O)n1cc(NC(=O)N2C[C@@H](N)C[C@H]2C(=O)NC(CCO)c2cccc(Cl)c2)c2ccccc21 (stereo partly shown) | Factor D (Homo sapiens (Human), UniProt P00746) | 2.9 |
| CC(=O)c1cn(CC(=O)N2C[C@H](F)C[C@H]2C(=O)NCc2cccc(Cl)c2F)c2ccc(OCc3ncccn3)cc12 | Factor D (Homo sapiens (Human), UniProt P00746) | 0.01 |
| CC(=O)c1cn(CC(=O)N2C[C@@H]3C[C@@H]3[C@H]2C(=O)N[C@H](CO)c2cccc(Cl)c2F)c2ccccc12 | Factor D (Homo sapiens (Human), UniProt P00746) | 3.43 |
| CO[C@H]1[C@@H](C(=O)Nc2cccc(Br)n2)N(C(=O)Cn2nc(C(N)=O)c3ccccc32)C[C@@H]1F | Factor D (Homo sapiens (Human), UniProt P00746) | 0.005 |
| NC(=O)n1cc(NC(=O)N2CC[C@@H]3C[C@@]32C(=O)NCc2cccc(Cl)c2F)c2ccccc21 | Factor D (Homo sapiens (Human), UniProt P00746) | 10.8 |
| NC(=O)n1cc(NC(=O)N2C[C@@H](C(F)F)C[C@H]2C(=O)NCc2cccc(Cl)c2F)c2ccccc21 | Factor D (Homo sapiens (Human), UniProt P00746) | 0.25 |

----------
IC50 values for the molecules below.
target: Factor D (Homo sapiens (Human), UniProt P00746); assay: biochemical; assay type: biochemical; settings: read-out: IC50

| Structure As Smiles | IC50 |
| --- | --- |
| NC(=O)n1cc(NC(=O)N2C[C@H](F)C[C@H]2C(=O)NCc2cccc(C(F)(F)F)c2F)c2ccccc21 | 137 nM |
| NC(=O)n1cc(NC(=O)N2C[C@H](F)C[C@H]2C(=O)NCc2cccnc2)c2ccccc21 | 450 nM |
| CNC(=O)n1cc(NC(=O)N2[C@@H]3C[C@@H]3C[C@H]2C(=O)NCc2cccc(Cl)c2F)c2ccccc21 | 54 nM |
| C[C@@H]1CC[C@@H](C(=O)Nc2cccc(OC(F)(F)F)c2)N1C(=O)Nc1cn(C(N)=O)c2ccccc12 | 750 nM |
| N#C[C@H]1C[C@@H](C(=O)Nc2cccc(OC(F)(F)F)c2F)N(C(=O)Nc2cn(C(N)=O)c3ccccc23)C1 | 1070 nM |
| CC(=O)c1cn(CC(=O)N2C[C@H](F)C[C@H]2C(=O)NCc2cccc(Br)c2F)c2ccccc12 | 8 nM |
| NC(=O)n1cc(NC(=O)N2CC[C@H](N)[C@H]2C(=O)NCc2cccc(Cl)c2)c2ccccc21 | 9300 nM |

----------
log10 of IC50 values for the compounds below.
molecular target: Factor D (Homo sapiens (Human), UniProt P00746); assay: biochemical; format: biochemical; conditions: read-out: IC50
Counter-ions that a name gives are not always drawn.
Readout Type: log10 of IC50 (log10 of the value in nM)

| Compound | log10 of IC50 |
| --- | --- |
| NC(=O)n1cc(NC(=O)N2C[C@H](F)C[C@H]2C(=O)NCc2cccc(C(=O)O)c2)c2ccccc21 [Example 24] | 3.23 |
| NC(=O)n1cc(NC(=O)N2CCS[C@H]2C(=O)NCc2ccc(Cl)s2)c2ccccc21 [Example 293] | 1.54 |
| COC[C@@]12C[C@@H](C(=O)NCc3cccc(Cl)c3F)N(C(=O)Cn3cc(C(C)=O)c4cccnc43)[C@@H]1C2 [Example 490] | 2.33 |
| NC(=O)n1cc(NC(=O)N2C[C@H](F)C[C@H]2C(=O)Nc2cncc(Br)c2)c2ccccc21 [Example 194] | 1.97 |
| NC(=O)n1cc(NC(=O)N2CC[C@@H](F)[C@H]2C(=O)NCc2cccc(Cl)c2)c2ccccc21 [Example 349] | 2.18 |
| CC(=O)c1nn(CC(=O)N2[C@@H]3C[C@@H]3C[C@H]2C(=O)Nc2cccc(OC(F)(F)F)c2F)c2ccc(OC(C)C#N)cc12 (stereo partly drawn) [Example 771] | 0.90 |
| CNC(=O)n1cc(NC(=O)N2[C@H](C(=O)NCc3cccc(Cl)c3F)C[C@@]3(COC)C[C@@H]23)c2ccccc21 [Example 284] | 2.46 |
| C[C@@H](CNC(=O)[C@@H]1C[C@H](N)CN1C(=O)Nc1cn(C(N)=O)c2ccccc12)c1ccccc1 [Example 84] | 3.78 |
| NC(=O)n1cc(CC(=O)N2C[C@H](F)C[C@H]2C(=O)Nc2cccc(OC(F)(F)F)c2F)c2ccccc21 [Example 442] | 2.93 |
| COc1ccc2c(c1)c(C(C)=O)cn2CC(=O)N1C[C@H](F)[C@@H](OC)[C@H]1C(=O)NCc1cccc(Cl)c1F [Example 485] | 1.18 |
| NC(=O)n1cc(NC(=O)N2CC[C@H](N)[C@H]2C(=O)NCc2cccc(Cl)c2F)c2ccccc21 [Example 420] | 3.06 |
| CC(C)(C)OC(=O)Cc1ccc2c(NC(=O)N3[C@@H]4C[C@@H]4C[C@H]3C(=O)NCc3cccc(Cl)c3F)cn(C(N)=O)c2c1 [Example 127] | 0.48 |
| NC(=O)n1cc(NC(=O)N2C[C@H](F)C[C@H]2C(=O)Nc2cc(C(=O)O)cc(Br)c2F)c2ccccc21 [Example 343] | 1.48 |
| NC(=O)n1cc(NC(=O)N2C[C@@H](N)C[C@H]2C(=O)NCc2ccc(O)cc2)c2ccccc21 [Example 47] | 3.95 |
| C[C@H](NC(=O)[C@@H]1C[C@H](N)CN1C(=O)Nc1cn(C(N)=O)c2ccccc12)c1cccc(Cl)c1 [Example 68] | 4.18 |
| CCO[C@H]1[C@@H](C(=O)NCc2cccc(Cl)c2F)N(C(=O)Cn2cc(C(C)=O)c3cc(C)ncc32)C[C@@H]1F [Example 667, formate] | 1.20 |
| NC(=O)n1cc(NC(=O)N2C[C@@H](N)C[C@H]2C(=O)NCc2cccc(F)c2F)c2ccccc21 [Example 52] | 2.60 |
| CC(=O)c1cn(CC(=O)N2C[C@H](F)C[C@H]2C(=O)NCc2cccc(Cl)c2F)c2cc(CC(=O)O)ccc12 [Example 595] | 1.61 |
| CCc1cc2c(C(N)=O)nn(CC(=O)N3[C@@H]4C[C@@H]4C[C@H]3C(=O)Nc3cccc(OC(F)(F)F)c3F)c2cn1 [Example 712] | 1.58 |
| CCc1cc2c(C(N)=O)nn(CC(=O)N3C[C@H](F)[C@@H](OC)[C@H]3C(=O)Nc3cccc(OC(F)(F)F)c3F)c2cn1 [Example 637] | 0.95 |
| C=CCOc1ccc2c(NC(=O)N3C[C@H](F)C[C@H]3C(=O)NCc3cccc(Cl)c3F)cn(C(N)=O)c2c1 [Example 280] | 2.40 |
| NC(=O)n1cc(NC(=O)N2C[C@H]3C[C@H]3[C@H]2C(=O)Nc2cccc(Br)n2)c2ccccc21 [Example 763] | 1.15 |
| CC(=O)c1nn(CC(=O)N2C[C@H](F)C[C@H]2C(=O)NCc2cccc(Cl)c2F)c2cnc(C)cc12 [Example 626] | 1.56 |
| COC(=O)c1ccc2c(C(C)=O)cn(CC(=O)N3[C@@H]4C[C@@H]4C[C@H]3C(=O)NCc3cccc(Cl)c3F)c2c1 [Example 526] | 1.73 |
| COC(=O)[C@H]1C[C@@H](C(=O)Nc2cccc(OC(F)(F)F)c2F)N(C(=O)Nc2cn(C(N)=O)c3ccccc23)C1 [Example 435] | 2.40 |
| C[C@@]1(F)C[C@@H](C(=O)NCc2cccc(Cl)c2F)N(C(=O)Cn2cc(C(N)=O)c3ccccc32)C1 [Example 496] | 2.25 |
| NC(=O)n1cc(NC(=O)N2C[C@H](F)C[C@H]2C(=O)NCc2ccccc2)c2ccccc21 [Example 2] | 1.40 |
